- System: Raji (Burkitt's Lymphoma)
- METHOD_SUMMARY: Bliss excess, mean over the matrix (fraction); higher = more synergy
This section presents compounds with their documented Bliss excess values.

{"COMPOUND": "CN(CCO)CC[C@H](CSc1ccccc1)Nc1ccc(S(=O)(=O)NC(=O)c2ccc(N3CCC([C@@H](O)c4ccccc4-c4ccc(Cl)cc4)CC3)cc2)cc1S(=O)(=O)C(F)(F)F [AZD4320] + C=CCn1c(=O)c2cnc(Nc3ccc(N4CCN(C)CC4)cc3)nc2n1-c1cccc(C(C)(C)O)n1 [AZD1775] (first compound max 1 µM, partner max 1 µM)", "Bliss excess": -0.0028}
{"COMPOUND": "CC1(C)CCC(CN2CCN(c3ccc(C(=O)NS(=O)(=O)c4ccc(NCC5CCOCC5)c([N+](=O)[O-])c4)c(Oc4cnc5[nH]ccc5c4)c3)CC2)=C(c2ccc(Cl)cc2)C1 [Venetoclax] + C[C@@H]1COCCN1C2=NC(=NC(=C2)C3(CC3)[S@](=N)(=O)C)C4=C5C=CNC5=NC=C4 [AZD6738] (first compound max 1 µM, 7x7, partner max 10 µM)", "Bliss excess": 0.0091}
{"COMPOUND": "Cc1cc2ncnn2cc1Nc1ncc2c(n1)n(C1CCOCC1)c(=O)n2C [AZD7648] + CCN(CCO)CCCOc1ccc2c(Nc3cc(CC(=O)Nc4cccc(F)c4)[nH]n3)ncnc2c1 [AZD2811] (first compound max 10 µM, 7x7, partner max 1 µM)", "Bliss excess": 0.0312}
{"COMPOUND": "CC1(C)CCC(CN2CCN(c3ccc(C(=O)NS(=O)(=O)c4ccc(NCC5CCOCC5)c([N+](=O)[O-])c4)c(Oc4cnc5[nH]ccc5c4)c3)CC2)=C(c2ccc(Cl)cc2)C1 [Venetoclax] + C[C@@H](Nc1cc(F)cc(F)c1)c1cc(C(=O)N(C)C)cc2c(=O)cc(N3CCOCC3)oc12 [AZD8186] (first compound max 1 µM, 7x7, partner max 3 µM)", "Bliss excess": 0.0114}
{"COMPOUND": "COc1cccc(OCCCN)c1-c1cc(Nc2cnc(C#N)cn2)n[nH]1 [Prexasertib] + CN(C)CCCOc1ccc(-c2ccc3ncc4c(c3c2)n(C2CCOCC2)c(=O)n4C)cn1 [AZD0156] (first compound max 1 µM, 7x7, partner max 1 µM)", "Bliss excess": -0.0105}
{"COMPOUND": "Cc1c2c(nn1C)CSCc1cc(n(C)n1)CSc1cc(c3ccccc3c1)OCCCc1c(C(=O)O)n(C)c3c-2c(Cl)ccc13 [AZD5991] + C[C@@H]1COCCN1C2=NC(=NC(=C2)C3(CC3)[S@](=N)(=O)C)C4=C5C=CNC5=NC=C4 [AZD6738] (first compound max 1 µM, 7x7, partner max 10 µM)", "Bliss excess": 0.055}
{"COMPOUND": "Cc1c2c(nn1C)CSCc1cc(n(C)n1)CSc1cc(c3ccccc3c1)OCCCc1c(C(=O)O)n(C)c3c-2c(Cl)ccc13 [AZD5991] + C[C@@H](Nc1cc(F)cc(F)c1)c1cc(C(=O)N(C)C)cc2c(=O)cc(N3CCOCC3)oc12 [AZD8186] (first compound max 1 µM, 7x7, partner max 3 µM)", "Bliss excess": 0.0164}
{"COMPOUND": "C=CCn1c(=O)c2cnc(Nc3ccc(N4CCN(C)CC4)cc3)nc2n1-c1cccc(C(C)(C)O)n1 [AZD1775] + C1CN(CCC1(C(=O)N[C@@H](CCO)C2=CC=C(C=C2)Cl)N)C3=NC=NC4=C3C=CN4 [Capivasertib] (first compound max 3 µM, partner max 3 µM)", "Bliss excess": 0.0011}

###

- System: NCI-H2373 (Mesothelioma)
- METHOD_SUMMARY: Bliss excess, mean over the matrix (fraction); higher = more synergy
Please note: MET applies when Bliss excess is -0.007 or greater, and NOT MET applies otherwise.

{"MOLECULE": "Cc1c2c(nn1C)CSCc1cc(n(C)n1)CSc1cc(c3ccccc3c1)OCCCc1c(C(=O)O)n(C)c3c-2c(Cl)ccc13 [AZD5991] + C[C@@H]1COCCN1C2=NC(=NC(=C2)C3(CC3)[S@](=N)(=O)C)C4=C5C=CNC5=NC=C4 [AZD6738] (first compound max 1 µM, 7x7, partner max 10 µM)", "CATEGORY": "MET"}
{"MOLECULE": "CC1(C)CCC(CN2CCN(c3ccc(C(=O)NS(=O)(=O)c4ccc(NCC5CCOCC5)c([N+](=O)[O-])c4)c(Oc4cnc5[nH]ccc5c4)c3)CC2)=C(c2ccc(Cl)cc2)C1 [Venetoclax] + Cn1cnc2c(F)c(Nc3ccc(Br)cc3Cl)c(C(=O)NOCCO)cc21 [Selumetinib] (first compound max 1 µM, 7x7, partner max 3 µM)", "CATEGORY": "NOT MET"}
{"MOLECULE": "CS(=O)(=O)CCNCc1ccc(-c2ccc3ncnc(Nc4ccc(OCc5cccc(F)c5)c(Cl)c4)c3c2)o1 [Lapatinib] + C[C@@H](Oc1cc(-c2cnn(C3CCNCC3)c2)cnc1N)c1c(Cl)ccc(F)c1Cl [Crizotinib] (first compound max 10 µM, 7x7, partner max 10 µM)", "CATEGORY": "NOT MET"}
{"MOLECULE": "CC(=O)c1c(C)c2cnc(Nc3ccc(N4CCNCC4)cn3)nc2n(C2CCCC2)c1=O [Palbociclib] + Cn1cnc2c(F)c(Nc3ccc(Br)cc3Cl)c(C(=O)NOCCO)cc21 [Selumetinib] (first compound max 10 µM, 7x7, partner max 10 µM)", "CATEGORY": "NOT MET"}

###

- Tested on: HPAF-II (Pancreatic Carcinoma)
- METHOD_SUMMARY: combination Emax (second highest fraction inhibited in the dose matrix, 72 h); higher = more inhibition; extreme values may be limits of the assay
This section presents compounds with their documented combination Emax values.

{"COMPOUND": "Cn1cnc2c(F)c(Nc3ccc(Br)cc3Cl)c(C(=O)NOCCO)cc21 [Selumetinib] + C=CCn1c(=O)c2cnc(Nc3ccc(N4CCN(C)CC4)cc3)nc2n1-c1cccc(C(C)(C)O)n1 [AZD1775] (first compound max 10 µM, partner max 1 µM)", "combination Emax": 0.728}
{"COMPOUND": "C=CCn1c(=O)c2cnc(Nc3ccc(N4CCN(C)CC4)cc3)nc2n1-c1cccc(C(C)(C)O)n1 [AZD1775] + C1CN(CCC1(C(=O)N[C@@H](CCO)C2=CC=C(C=C2)Cl)N)C3=NC=NC4=C3C=CN4 [Capivasertib] (first compound max 3 µM, partner max 3 µM)", "combination Emax": 0.605}
{"COMPOUND": "CC(=O)c1c(C)c2cnc(Nc3ccc(N4CCNCC4)cn3)nc2n(C2CCCC2)c1=O [Palbociclib] + Cc1c2c(nn1C)CSCc1cc(n(C)n1)CSc1cc(c3ccccc3c1)OCCCc1c(C(=O)O)n(C)c3c-2c(Cl)ccc13 [AZD5991] (first compound max 10 µM, 7x7, partner max 1 µM)", "combination Emax": 0.142}
{"COMPOUND": "COc1nnc2ccc(N3CCC(c4ccc(OCCN5CCN(C)C(=O)[C@H]5C)cc4)CC3)nn12 [AZD5153] + Cc1c2c(nn1C)CSCc1cc(n(C)n1)CSc1cc(c3ccccc3c1)OCCCc1c(C(=O)O)n(C)c3c-2c(Cl)ccc13 [AZD5991] (first compound max 1 µM, 7x7, partner max 1 µM)", "combination Emax": 0.35}
{"COMPOUND": "N#Cc1cnc(Nc2cc(NC[C@H]3CNCCO3)c(C(F)(F)F)cn2)cn1 [SRA737] + C=CCn1c(=O)c2cnc(Nc3ccc(N4CCN(C)CC4)cc3)nc2n1-c1cccc(C(C)(C)O)n1 [AZD1775] (first compound max 10 µM, partner max 1 µM)", "combination Emax": 0.495}
{"COMPOUND": "COc1nnc2ccc(N3CCC(c4ccc(OCCN5CCN(C)C(=O)[C@H]5C)cc4)CC3)nn12 [AZD5153] + C=CCn1c(=O)c2cnc(Nc3ccc(N4CCN(C)CC4)cc3)nc2n1-c1cccc(C(C)(C)O)n1 [AZD1775] (first compound max 1 µM, partner max 1 µM)", "combination Emax": 0.449}
{"COMPOUND": "C[C@@H]1COCCN1c1cc(C2([S@](C)(=N)=O)CC2)nc(-c2ccnc3[nH]ccc23)n1 [AZD6738] + C1CC(C1)(C(=O)[O-])C(=O)[O-].N.N.[Pt+2] [Carboplatin] (first compound max 10 µM, 7x7, partner max 10 µM)", "combination Emax": 0.36}
{"COMPOUND": "C=CCn1c(=O)c2cnc(Nc3ccc(N4CCN(C)CC4)cc3)nc2n1-c1cccc(C(C)(C)O)n1 [AZD1775] + Nc1ccn([C@@H]2O[C@H](CO)[C@@H](O)C2(F)F)c(=O)n1 [Gemcitabine] (first compound max 1 µM, partner max 0.3 µM)", "combination Emax": 0.551}
{"COMPOUND": "Cn1cnc2c(F)c(Nc3ccc(Br)cc3Cl)c(C(=O)NOCCO)cc21 [Selumetinib] + C[C@@H]1COCCN1C2=NC(=NC(=C2)C3(CC3)[S@](=N)(=O)C)C4=C5C=CNC5=NC=C4 [AZD6738] (first compound max 10 µM, 7x7, partner max 10 µM)", "combination Emax": 0.768}
{"COMPOUND": "CS(=O)(=O)CCNCc1ccc(-c2ccc3ncnc(Nc4ccc(OCc5cccc(F)c5)c(Cl)c4)c3c2)o1 [Lapatinib] + C[C@@H](Oc1cc(-c2cnn(C3CCNCC3)c2)cnc1N)c1c(Cl)ccc(F)c1Cl [Crizotinib] (first compound max 10 µM, 7x7, partner max 10 µM)", "combination Emax": 0.614}
{"COMPOUND": "COc1cc2ncnc(Nc3ccc(F)c(Cl)c3)c2cc1OCCCN1CCOCC1 [Gefitinib] + CC(C)n1c(=O)n(C)c2cnc3cc(F)c(-c4ccc(OCCCN5CCCCC5)nc4)cc3c21 [AZD1390] (first compound max 10 µM, 7x7, partner max 0.3 µM)", "combination Emax": 0.29}
{"COMPOUND": "CC(=O)c1c(C)c2cnc(Nc3ccc(N4CCNCC4)cn3)nc2n(C2CCCC2)c1=O [Palbociclib] + Cn1cnc2c(F)c(Nc3ccc(Br)cc3Cl)c(C(=O)NOCCO)cc21 [Selumetinib] (first compound max 10 µM, 7x7, partner max 10 µM)", "combination Emax": 0.629}
